# experimentalSystem: LmxCLK1 (Leishmania mexicana)
# assayInfo: biochemical
# Assay type: binding
# particulars: DSF, 10 µM compound, 2 µM LmxCLK1, Run 1
Each record is given 1.0 if its reported ΔTm Run 1 is strictly below 0.2 °C. Records at or above 0.2 °C are given 0.0.

Please review the entries below; each comes with its answer.
CC1(C)CNc2cc(NC(=O)c3cccnc3NCc3ccncc3)ccc21.O=P(O)(O)O.O=P(O)(O)O [Motesanib Diphosphate (AMG-706)]	0.0
Cc1cc(C)nc(NS(=O)(=O)c2ccc(NC(=S)NC(=O)COc3ccc(Br)cc3Cl)cc2)n1	1.0
Cc1ccc(-n2nc(C(C)(C)C)cc2NC(=O)Nc2ccc(OCCN3CCOCC3)c3ccccc23)cc1	0.0

# input Hello, I'm reviewing records and need to know if ΔTm Run 1 of CCn1c(N)c(C(=O)NC)c(=O)c2ccc(C#C[C@@](C)(O)COC)nc21 is below 0.2 °C. Could you check?
# output 1.0

# input Hello, I'm reviewing records and need to know if ΔTm Run 1 of CNC(=O)c1nn(C)c2c1C(C)(C)Cc1cnc(Nc3ccc(N4CCN(C)CC4)cc3)nc1-2 is below 0.2 °C. Could you check?
# output 1.0

# input Hello, I'm reviewing records and need to know if ΔTm Run 1 of O=C(c1ccc(Nc2nccc(-c3cc4ccccc4s3)n2)cc1)N1CCC(N2CCCC2)CC1 is below 0.2 °C. Could you check?
# output 0.0

# input Hello, I'm reviewing records and need to know if ΔTm Run 1 of CCn1c(=O)c(-c2cc[nH]n2)cc2c(C)nc(N)nc21 is below 0.2 °C. Could you check?
# output 1.0

# input Hello, I'm reviewing records and need to know if ΔTm Run 1 of Cc1ccc(C(=O)Nc2cccc(C(F)(F)F)c2)cc1Nc1nc(-c2cccnc2)nc2c1cnn2C is below 0.2 °C. Could you check?
# output 1.0

# input Hello, I'm reviewing records and need to know if ΔTm Run 1 of COc1cc2c(Oc3ccc(NC(=O)C4(C(=O)Nc5ccc(F)cc5)CC4)cc3F)ccnc2cc1OCCCN1CCOCC1 is below 0.2 °C. Could you check?
# output 0.0

# input Hello, I'm reviewing records and need to know if ΔTm Run 1 of CCn1c2ccccc2c2cc(Nc3ccnc(NCCCN4CCOCC4)n3)ccc21 is below 0.2 °C. Could you check?
# output 1.0

###

# experimentalSystem: LmxCLK1 (Leishmania mexicana, UniProt E9AMP2)
# Sequence (E9AMP2 1-422): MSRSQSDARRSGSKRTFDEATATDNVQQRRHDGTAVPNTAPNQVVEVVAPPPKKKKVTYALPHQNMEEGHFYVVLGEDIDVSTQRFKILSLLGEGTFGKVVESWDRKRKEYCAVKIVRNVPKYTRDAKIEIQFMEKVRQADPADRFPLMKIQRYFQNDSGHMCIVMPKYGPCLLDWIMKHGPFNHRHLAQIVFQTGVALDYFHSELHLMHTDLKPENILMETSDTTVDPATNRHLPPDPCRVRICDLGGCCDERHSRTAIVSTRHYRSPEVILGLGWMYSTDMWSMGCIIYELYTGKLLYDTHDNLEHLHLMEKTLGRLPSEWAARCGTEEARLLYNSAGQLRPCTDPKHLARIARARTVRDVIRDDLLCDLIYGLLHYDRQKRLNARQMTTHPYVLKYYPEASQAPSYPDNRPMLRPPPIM
# assayInfo: biochemical
# Format: binding
# particulars: DSF, 10 µM compound, 2 µM LmxCLK1, mean of two runs
propertyMeasured: ΔTm Average (°C)
Expressed in °C, but write only the number.

O=C(NCc1cccc(O)c1)Nc1nc(-c2ccncc2)cs1	-0.1
CC[C@H](Nc1ncnc2[nH]cnc12)c1nc2cccc(F)c2c(=O)n1-c1ccccc1	-0.2
CNC(=O)c1cc(Oc2ccc(NC(=O)Nc3cc(C(C)(C)C)nn3-c3ccc4ncccc4c3)c(F)c2)ccn1 [DCC-2036 (Rebastinib)]	-0.3
COc1cc(OC)c(/C=C/S(=O)(=O)Cc2ccc(OC)c(NCC(=O)O)c2)c(OC)c1	-0.3
O=c1cc(CN2CCOCC2)occ1OCCCCCSc1ccnc2cc(C(F)(F)F)ccc12	-0.1

# input Name the recorded ΔTm Average for Nc1cc(C(F)(F)F)c(-c2cc(N3CCOCC3)nc(N3CCOCC3)n2)cn1 .
# output 0.1

# input Name the recorded ΔTm Average for CC(O)C(=O)O.CC(O)C(=O)O.CN1CCN(c2ccc3nc(-c4c(N)c5c(F)cccc5[nH]c4=O)[nH]c3c2)CC1 .
# output -0.4

# input Name the recorded ΔTm Average for COc1cccc(-c2cc(=O)c3ccccc3o2)c1N .
# output -0.1

# input Name the recorded ΔTm Average for Cn1cc(-c2ccc3ncc(Cc4ccc5ncccc5c4)n3n2)cn1 .
# output 0.2
